Measured pIC50, listed per entry.
biological target: SCD5 (Homo sapiens); construct: host or cells: S. cerevisiae ole1Δ strain (W303 pdr1Δ pdr3Δ background), plasmid pRS316 with TDH3 promoter and CYC1 terminator; experiment: Growth inhibition of humanized yeast strain expressing SCD5 as sole desaturase; type: cell-based; settings: growth inhibition of humanized yeast strain expressing human SCD5
pIC50: −log10 of the molar value.

molecule | qual | pIC50
CC(C)(C)CC(=O)N1CC(c2nc(-c3ccc4cnn(C5COC5)c4c3)no2)C1 [Compound 707] | = | 4.84
CC(C)(C)OC(=O)N1CCC(c2nc(-c3ccc4c(c3)N(C3COC3)C(=O)CC4)no2)CC1 [Compound 662] | < | 4.35
CNC(=O)Cn1cc2ccc(-c3noc(C4CCN(C(=O)OC(C)(C)C)CC4)n3)cc2n1 [Compound 678] | = | 5.41
COC(=O)N1CCC(c2nc(-c3ccc4c(c3)N(C(C)C)C(=O)C4)no2)CC1 [Compound 627] | = | 5.17

----------
biological target: SCD5 (Homo sapiens, UniProt Q86SK9); construct: host or cells: S. cerevisiae ole1Δ strain (W303 pdr1Δ pdr3Δ background), plasmid pRS316 with TDH3 promoter and CYC1 terminator; test: Growth inhibition of humanized yeast strain expressing SCD5 as sole desaturase; assay type: cell-based; conditions: humanized yeast strain expressing SCD5
Sequence (Q86SK9 whole entry): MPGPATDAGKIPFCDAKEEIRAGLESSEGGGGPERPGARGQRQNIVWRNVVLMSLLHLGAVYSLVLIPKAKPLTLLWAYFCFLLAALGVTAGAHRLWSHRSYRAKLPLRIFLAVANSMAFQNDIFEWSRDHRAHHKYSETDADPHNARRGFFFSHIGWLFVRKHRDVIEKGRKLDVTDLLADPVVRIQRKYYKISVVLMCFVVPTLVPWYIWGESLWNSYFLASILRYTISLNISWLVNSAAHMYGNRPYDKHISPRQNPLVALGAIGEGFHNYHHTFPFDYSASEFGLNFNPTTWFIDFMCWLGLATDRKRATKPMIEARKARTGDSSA
property: IC50

compound | property | observed-value
COc1ccc(-c2noc(C3CCN(C(=O)CN(C)C(=O)c4ccccc4)CC3)n2)cc1OC | IC50 | 30 µM
COc1ccccc1-c1noc(C2CCN(C(=O)CNC(=O)c3ccc(C)c(C)c3)CC2)n1 | IC50 | > 45 µM
O=C([C@H]1CC(=O)N(c2ccccc2)C1)N1CCC(c2nc(-c3ccc(Br)s3)no2)CC1 | IC50 | > 45 µM
COC(=O)N1CCN(c2nc(-c3ccc4cnn(C(C)C)c4c3)no2)CC1 | IC50 | > 45 µM
Cc1nn(C)c2cc(-c3noc(C4CCN(C(=O)C5CC(=O)N(CC6CC6)C5)CC4)n3)ccc12 (stereo not shown) | IC50 | > 45 µM
Cc1nn(C)c2cc(-c3noc(C4CCN(C(=O)CNC(=O)c5ccc(C(F)(F)F)cc5)CC4)n3)ccc12 | IC50 | > 45 µM
Cc1nn(C)c2cc(-c3noc(C4CCN(C(=O)OC(C)(C)C)CC4(F)F)n3)ccc12 (stereo not shown) | IC50 | 14.8 µM
COc1ccc(C(=O)NCC(=O)N2CCC(c3nc(-c4ccc5c(C)nn(C)c5c4)no3)CC2)nc1 | IC50 | > 45 µM
Cc1ccc(-c2nc(C3CCN(C(=O)[C@@H]4CC(=O)N(c5ccc(C)c(C)c5)C4)CC3)no2)cc1 | IC50 | 33 µM
CCOc1ccc(-c2noc(C3CCN(C(=O)NC4CC4c4ccccc4)CC3)n2)cc1OC (stereo not shown) | IC50 | > 45 µM
CCn1nc2cc(-c3noc(C4CCN(C(=O)OC(C)(C)C)CC4)n3)ccc2c1C | IC50 | > 45 µM
CCOC(=O)N1CCC(c2nc(-c3ccc4cnn(C(C)C)c4c3)no2)CC1 | IC50 | > 45 µM
Cc1nn(C)c2cc(-c3noc(C4CCN(C(=O)CNC(=O)c5ccc(Cl)cc5)CC4(F)F)n3)ccc12 (stereo not shown) | IC50 | 1.07 µM
CC(C)n1ncc2ccc(-c3noc(C4CCN(C(=O)c5ccc(Cl)c(F)c5)CC4)n3)cc21 | IC50 | > 45 µM
Cc1nn(C)c2cc(-c3noc(C4CCN(C(=O)CNC(=O)c5ccc(C#N)cc5)CC4(F)F)n3)ccc12 (stereo not shown) | IC50 | 5.69 µM
O=C(NCC(=O)N1CCC(c2nc(-c3ccc(F)cc3)no2)CC1)c1ccccc1 | IC50 | > 45 µM
